We begin with a simple list: items and their reported Histamine in vitro Fold change of non-treated at 10 uM.
system: rat peritoneal mast cells; assay: In vitro histamine induction in rat peritoneal mast cells; type: cell-based
Square brackets hold non-standard residues; d marks the D form. Peptide text beside a SMILES is read from it.
Give just the number in fold; leave the unit off.

CC(=O)N[C@H](CS)C(=O)N[C@H](CCCNC(=N)N)C(=O)N[C@H](CCCNC(=N)N)C(=O)N[C@H](CCCNC(=N)N)C(=O)N[C@H](CCCNC(=N)N)C(=O)N[C@H](C)C(=O)N[C@H](CCCNC(=N)N)C(N)=O [SEQ ID NO: 12, Ac-crrrrar-NH2] (Ac-[dC][dR][dR][dR][dR][dA][dR]-NH2); 5.0
CC(=O)N[C@H](CS)C(=O)N[C@H](CCCNC(=N)N)C(=O)N[C@H](CCCNC(=N)N)C(=O)NCC(=O)N[C@H](CCCNC(=N)N)C(=O)N[C@H](C)C(=O)N[C@H](CCCNC(=N)N)C(N)=O [SEQ ID NO: 105, Ac-crrGrar-NH2] (Ac-[dC][dR][dR]G[dR][dA][dR]-NH2); 1.8

Let us examine a further case.
Specify measured Histamine in vitro Fold change of non-treated at 10 uM for CC(=O)N[C@H](CS)C(=O)N[C@H](C)C(=O)N[C@H](CCCNC(=N)N)C(=O)N[C@H](CCCNC(=N)N)C(=O)N[C@H](CCCNC(=N)N)C(=O)N[C@H](Cc1ccccc1)C(=O)N[C@H](CCCNC(=N)N)C(N)=O [SEQ ID NO: 83, Ac-carrrfr-NH2] (Ac-[dC][dA][dR][dR][dR][dF][dR]-NH2) .
4.0

====

test system: plasma PTH; assay: In vivo PTH lowering after IV bolus in isoflurane-anesthetized normal Sprague Dawley rats; set-up: species or system rat; conditions: Table 6; normal rats, AUC 1-4 h
Square brackets hold non-standard residues; d marks the D form. Peptide text beside a SMILES is read from it.
QUANTITY_MEASURED: 0.5 mg/kg IV bolus % PTH AUC of saline control (%)
Give just the number in %; leave the unit off.

CC(=O)N[C@H](CS)C(=O)N[C@H](CCCNC(=N)N)C(=O)N[C@H](CCCNC(=N)N)C(=O)N[C@H](CO)C(=O)N[C@H](CCCNC(=N)N)C(=O)N[C@H](C)C(=O)N[C@H](CCCNC(=N)N)C(N)=O [SEQ ID NO: 111, Ac-crrsrar-NH2] (Ac-[dC][dR][dR][dS][dR][dA][dR]-NH2); 4
CC(=O)N[C@H](CS)C(=O)N[C@H](CCCNC(=N)N)C(=O)N[C@H](CCCNC(=N)N)C(=O)N[C@H](Cc1c[nH]cn1)C(=O)N[C@H](CCCNC(=N)N)C(=O)N[C@H](C)C(=O)N[C@H](CCCNC(=N)N)C(N)=O [SEQ ID NO: 109, Ac-crrhrar-NH2] (Ac-[dC][dR][dR][dH][dR][dA][dR]-NH2); 9

Let us examine a further case.
Specify measured 0.5 mg/kg IV bolus % PTH AUC of saline control for CC(=O)N[C@H](CS)C(=O)N[C@H](C)C(=O)N[C@H](CCCNC(=N)N)C(=O)N[C@H](CCCNC(=N)N)C(=O)N[C@H](CCCNC(=N)N)C(=O)N[C@H](CCC(=O)O)C(=O)N[C@H](CCCNC(=N)N)C(N)=O [SEQ ID NO: 68, Ac-carrrer-NH2] (Ac-[dC][dA][dR][dR][dR][dE][dR]-NH2) .
81

====

tested on: plasma PTH; assay: In vivo PTH lowering after IV bolus in isoflurane-anesthetized normal Sprague Dawley rats; parameters: species or system rat; conditions: Table 6; normal rats, AUC 1-4 h
Square brackets hold non-standard residues; d marks the D form. Peptide text beside a SMILES is read from it.
QUANTITY_MEASURED: 0.5 mg/kg IV bolus % PTH AUC of saline control (%)
Give just the number in %; leave the unit off.

CC(=O)N[C@H](CS)C(=O)N[C@H](C)C(=O)N[C@H](CCCNC(=N)N)C(=O)N[C@H](CCCNC(=N)N)C(=O)N[C@H](CCCNC(=N)N)C(=O)NCC(=O)N[C@H](CCCNC(=N)N)C(N)=O [SEQ ID NO: 93, Ac-carrrGr-NH2] (Ac-[dC][dA][dR][dR][dR]G[dR]-NH2); 5

Please indicate recorded 0.5 mg/kg IV bolus % PTH AUC of saline control of CC(=O)N[C@H](CS)C(=O)N[C@H](C)C(=O)N[C@H](CCCNC(=N)N)C(=O)N[C@H](CCCNC(=N)N)C(=O)N[C@H](CCCNC(=N)N)C(=O)N[C@H](CO)C(=O)N[C@H](CCCNC(=N)N)C(N)=O [SEQ ID NO: 92, Ac-carrrsr-NH2] (Ac-[dC][dA][dR][dR][dR][dS][dR]-NH2) measured with plasma PTH.
6

Please indicate recorded 0.5 mg/kg IV bolus % PTH AUC of saline control of CC(=O)N[C@H](CS)C(=O)N[C@H](CCC(=O)O)C(=O)N[C@H](CCCNC(=N)N)C(=O)N[C@H](CCCNC(=N)N)C(=O)N[C@H](CCCNC(=N)N)C(=O)N[C@H](C)C(=O)N[C@H](CCCNC(=N)N)C(N)=O [SEQ ID NO: 69, Ac-cerrrar-NH2] (Ac-[dC][dE][dR][dR][dR][dA][dR]-NH2) measured with plasma PTH.
103

====

system: plasma PTH; assay: In vivo PTH lowering after IV bolus in isoflurane-anesthetized normal Sprague Dawley rats; set-up: species or system rat; details: Table 6; normal rats, AUC 1-4 h
Square brackets hold non-standard residues; d marks the D form. Peptide text beside a SMILES is read from it.
QUANTITY_MEASURED: 0.5 mg/kg IV bolus % PTH AUC of saline control (%)
Give just the number in %; leave the unit off.

CC(=O)N[C@H](CS)C(=O)NCC(=O)N[C@H](CCCNC(=N)N)C(=O)N[C@H](CCCNC(=N)N)C(=O)N[C@H](CCCNC(=N)N)C(=O)N[C@H](C)C(=O)N[C@H](CCCNC(=N)N)C(N)=O [SEQ ID NO: 95, Ac-cGrrrar-NH2] (Ac-[dC]G[dR][dR][dR][dA][dR]-NH2); 45
CC(=O)N[C@H](CS)C(=O)N[C@H](Cc1ccccc1)C(=O)N[C@H](CCCNC(=N)N)C(=O)N[C@H](CCCNC(=N)N)C(=O)N[C@H](CCCNC(=N)N)C(=O)N[C@H](C)C(=O)N[C@H](CCCNC(=N)N)C(N)=O [SEQ ID NO: 104, Ac-cfrrrar-NH2] (Ac-[dC][dF][dR][dR][dR][dA][dR]-NH2); 0

Specify measured 0.5 mg/kg IV bolus % PTH AUC of saline control for CC(=O)N[C@H](CS)C(=O)N[C@H](C)C(=O)N[C@H](CCCNC(=N)N)C(=O)N[C@H](CCCNC(=N)N)C(=O)N[C@H](CCCNC(=N)N)C(=O)N[C@H](CCC(N)=O)C(=O)N[C@H](CCCNC(=N)N)C(N)=O [SEQ ID NO: 90, Ac-carrrqr-NH2] (Ac-[dC][dA][dR][dR][dR][dQ][dR]-NH2) .
41

====

system: plasma PTH; test: In vivo PTH lowering after IV bolus in isoflurane-anesthetized normal Sprague Dawley rats; parameters: species or system rat; details: Table 6; normal rats, AUC 1-4 h
Square brackets hold non-standard residues; d marks the D form. Peptide text beside a SMILES is read from it.
QUANTITY_MEASURED: 0.5 mg/kg IV bolus % PTH AUC of saline control (%)
Give just the number in %; leave the unit off.

Some solved entries appear below for comparison.
CC[C@@H](C)[C@@H](NC(=O)[C@@H](CCCNC(=N)N)NC(=O)[C@@H](CCCNC(=N)N)NC(=O)[C@@H](CS)NC(C)=O)C(=O)N[C@H](CCCNC(=N)N)C(=O)N[C@H](C)C(=O)N[C@H](CCCNC(=N)N)C(N)=O [SEQ ID NO: 115, Ac-crrirar-NH2] (Ac-[dC][dR][dR][dI][dR][dA][dR]-NH2); 0
CC(=O)N[C@H](CS)C(=O)N[C@H](CC(C)C)C(=O)N[C@H](CCCNC(=N)N)C(=O)N[C@H](CCCNC(=N)N)C(=O)N[C@H](CCCNC(=N)N)C(=O)N[C@H](C)C(=O)N[C@H](CCCNC(=N)N)C(N)=O [SEQ ID NO: 98, Ac-clrrrar-NH2] (Ac-[dC][dL][dR][dR][dR][dA][dR]-NH2); 26

Specify measured 0.5 mg/kg IV bolus % PTH AUC of saline control for CC(=O)N[C@H](CS)C(=O)N[C@H](CCC(N)=O)C(=O)N[C@H](CCCNC(=N)N)C(=O)N[C@H](CCCNC(=N)N)C(=O)N[C@H](CCCNC(=N)N)C(=O)N[C@H](C)C(=O)N[C@H](CCCNC(=N)N)C(N)=O [SEQ ID NO: 99, Ac-cqrrrar-NH2] (Ac-[dC][dQ][dR][dR][dR][dA][dR]-NH2) .
24
